Test system: U2OS
measurement_notes: cell viability relative to DMSO; higher = less toxic
condition_notes: 72 h; 100 nM
Known cell viability of a selection of compounds

>  <compound>
CC[C@H]1OC(=O)[C@H](C)[C@@H](O[C@H]2C[C@@](C)(OC)[C@@H](O)[C@H](C)O2)[C@H](C)[C@@H](O[C@@H]2O[C@H](C)C[C@H](N(C)C)[C@H]2O)[C@](C)(O)C[C@@H](C)C(=O)[C@H](C)[C@@H](O)[C@]1(C)O

>  <unit_name>
%

>  <cell viability>
102

$$$$
>  <compound>
Nc1nc2[nH]cnc2c(=S)[nH]1

>  <unit_name>
%

>  <cell viability>
94

$$$$
>  <compound>
O=C1c2c(O)cccc2Cc2cccc(O)c21

>  <unit_name>
%

>  <cell viability>
97

$$$$
>  <compound>
O=C(O)c1ccc(NC(=O)[C@H](Cc2ccc(O)cc2)NC(=O)c2ccccc2)cc1 [bentiromide]

>  <unit_name>
%

>  <cell viability>
107

$$$$

* * *

Tested on: Caco-2
measurement_notes: cell viability relative to DMSO; higher = less toxic
condition_notes: 72 h; 10 nM
Known cell viability of a selection of compounds
assay_readout: cell viability (%)

>  <compound>
CC[N+](CC)(CC)CC(=O)Nc1c(C)cccc1C

>  <measured_on>
Caco-2

>  <readout_number>
93.4

$$$$
>  <compound>
C[C@H]1[C@H](OC(=O)CCC(=O)O)O[C@@H]2O[C@@]3(C)CC[C@H]4[C@H](C)CC[C@@H]1[C@@]24OO3 [artesunate]

>  <measured_on>
Caco-2

>  <readout_number>
96.1

$$$$
>  <compound>
CCC(CC)n1ccc2c(C(=O)NCc3c(C)cc(C)[nH]c3=O)cc(C#N)cc21

>  <measured_on>
Caco-2

>  <readout_number>
95.1

$$$$
>  <compound>
O=C(O)c1ccc2cc(-c3ccc(O)c(C45CC6CC(CC(C6)C4)C5)c3)ccc2c1

>  <measured_on>
Caco-2

>  <readout_number>
92.8

$$$$
>  <compound>
O=C(O)c1ccc(O)c2ncccc12

>  <measured_on>
Caco-2

>  <readout_number>
97.7

$$$$
>  <compound>
N=C(N)NCCC[C@H](NC(=O)[C@@H]1CCCN1C(=O)[C@@H]1CSSC[C@H](N)C(=O)N[C@@H](Cc2ccc(O)cc2)C(=O)N[C@@H](Cc2ccccc2)C(=O)N[C@@H](CCC(N)=O)C(=O)N[C@@H](CC(N)=O)C(=O)N1)C(=O)NCC(N)=O

>  <measured_on>
Caco-2

>  <readout_number>
93

$$$$
>  <compound>
CCC1(c2ccccc2)C(=O)NCNC1=O

>  <measured_on>
Caco-2

>  <readout_number>
100

$$$$
>  <compound>
Clc1ccc(C(OCCN2CCCCC2)c2ccccc2)cc1 (stereo not drawn)

>  <measured_on>
Caco-2

>  <readout_number>
94.9

$$$$

* * *

Tested on: Vero E6
measurement_notes: cell viability relative to DMSO; higher = less toxic
condition_notes: 72 h; 10000 nM

>  <compound>
NC[C@H]1O[C@H](O[C@H]2[C@H](O)[C@@H](O[C@H]3O[C@H](CO)[C@@H](O)[C@H](N)[C@H]3O)[C@H](N)C[C@@H]2N)[C@H](N)[C@@H](O)[C@@H]1O

>  <unit_name>
%

>  <cell viability>
108

$$$$
>  <compound>
C[N+]1([O-])[C@@H]2CC[C@H]1C[C@@H](OC(=O)C(CO)c1ccccc1)C2 (some centres not stated) [atropine-oxide]

>  <unit_name>
%

>  <cell viability>
95.5

$$$$
>  <compound>
Cc1cccc(C)c1NC(=O)CC12CCCN1CCC2 [pilsicainide]

>  <unit_name>
%

>  <cell viability>
100

$$$$
>  <compound>
NC(=O)CN1CC[C@@H](NC(=O)[C@@H]2CCCN2)C1=O

>  <unit_name>
%

>  <cell viability>
104

$$$$
>  <compound>
O=C1C[C@@]2(C(=O)N1)C(=O)N(Cc1ccc(Br)cc1F)C(=O)c1cccn12

>  <unit_name>
%

>  <cell viability>
100

$$$$
>  <compound>
CCCCCCCCC(=O)NCc1cc(OC)c(O)cc1I [6-iodo-nordihydrocapsaicin]

>  <unit_name>
%

>  <cell viability>
104

$$$$
>  <compound>
COc1cc2c(c(OC)c1OC)-c1c(cc3c(c1OC)OCO3)C[C@H](C)[C@@](C)(O)C2

>  <unit_name>
%

>  <cell viability>
97.8

$$$$
>  <compound>
O=C(O)/C=C/c1ccc(O)c(O)c1

>  <unit_name>
%

>  <cell viability>
104

$$$$
>  <compound>
O=c1[nH]c(=O)n([C@H]2C[C@H](O)[C@@H](CO)O2)cc1F

>  <unit_name>
%

>  <cell viability>
42.2

$$$$
>  <compound>
Cc1c(Cc2ccc3ccccc3n2)c2cc(F)ccc2n1CC(=O)O

>  <unit_name>
%

>  <cell viability>
101

$$$$
>  <compound>
CCCCN1CCC(CCC(=O)c2cc(Cl)c(N)cc2OC)CC1

>  <unit_name>
%

>  <cell viability>
94.1

$$$$
>  <compound>
C[C@H]1C[C@H]2[C@@H]3CCC4=CC(=O)C=C[C@]4(C)[C@@]3(Cl)[C@@H](O)C[C@]2(C)[C@@]1(O)C(=O)CO

>  <unit_name>
%

>  <cell viability>
110

$$$$

* * *

Test system: U2OS
measurement_notes: cell viability relative to DMSO; higher = less toxic
condition_notes: 72 h; 1 nM
assay_readout: cell viability (%)

>  <molecule>
CC(=O)OCC(CCn1cnc2cnc(N)nc21)COC(C)=O

>  <readout_number>
100

$$$$
>  <molecule>
O=C(c1ccc(F)cc1)N1CCC[C@H](c2nc(-c3ccc(F)cc3)no2)C1

>  <readout_number>
94

$$$$
>  <molecule>
CS(=O)(=O)OCOS(C)(=O)=O

>  <readout_number>
100

$$$$
>  <molecule>
C[C@]12CCC(=O)C=C1C=C[C@@H]1[C@@H]2CC[C@@]2(C)[C@H]1CC[C@@]21CCC(=O)O1

>  <readout_number>
101

$$$$
>  <molecule>
N=C(N)NCCC[C@H](N)C(=O)O

>  <readout_number>
105

$$$$
>  <molecule>
CC/C=C\C/C=C\C/C=C\C/C=C\C/C=C\C/C=C\CCC(=O)OCC

>  <readout_number>
93.6

$$$$
>  <molecule>
CN1C(=O)N(c2cc(Cl)cc(Cl)c2)C(=O)[C@]12CN(c1ccc(C(=O)O)cn1)C[C@H]2c1ccc(C#N)cc1

>  <readout_number>
98.8

$$$$
>  <molecule>
O=C1CN(/N=C/c2ccc(-c3ccc([N+](=O)[O-])cc3)o2)C(=O)N1

>  <readout_number>
96.8

$$$$
>  <molecule>
COC(=O)[C@]12CCC(C)(C)C[C@H]1[C@H]1C(=O)C=C3[C@@]4(C)C=C(C#N)C(=O)C(C)(C)[C@@H]4CC[C@@]3(C)[C@]1(C)CC2

>  <readout_number>
101

$$$$
>  <molecule>
C[C@H](NCc1ccc(OCc2ccccc2F)cc1)C(N)=O [priralfinamide]

>  <readout_number>
99.2

$$$$
>  <molecule>
CC(C)c1c(NC(=O)Nc2ccc(Cl)cc2)c(=O)n(-c2ccccc2)n1C

>  <readout_number>
97.1

$$$$
>  <molecule>
Fc1ccccc1CNCc1ccc(-c2ccnc3[nH]ccc23)cc1

>  <readout_number>
98.6

$$$$
>  <molecule>
CNC(=S)C1(c2ccccn2)CCCS1 (stereo not drawn) [picartamide]

>  <readout_number>
99.5

$$$$
>  <molecule>
Nc1c(S(=O)(=O)O)cc(Nc2cccc3ccccc23)c2c1C(=O)c1ccccc1C2=O

>  <readout_number>
94.1

$$$$
>  <molecule>
O=C(O)[C@H](CC(=O)N1C[C@H]2CCCC[C@H]2C1)Cc1ccccc1 [mitiglinide]

>  <readout_number>
92.2

$$$$
>  <molecule>
CCCCN1CCCC1CNC(=O)c1cc(C#N)c2ccccc2c1OC (stereo not drawn) [nafadotride]

>  <readout_number>
98.3

$$$$
>  <molecule>
Cn1ccc2cc3c(cc21)CCN3C(=O)Nc1cccnc1

>  <readout_number>
98.2

$$$$
>  <molecule>
O=C(Nc1ccccc1C(=O)Nc1ccc(CCO)cc1)c1ccc([N+](=O)[O-])cc1

>  <readout_number>
96.7

$$$$

* * *

Test system: Vero E6
measurement_notes: cell viability relative to DMSO; higher = less toxic
condition_notes: 72 h; 10000 nM
assay_readout: cell viability (%)

>  <compound>
CCCCCCCCCCC[C@@H](C[C@@H]1OC(=O)[C@H]1CCCCCC)OC(=O)[C@H](CC(C)C)NC=O

>  <assay_readout>
cell viability

>  <readout_number>
102

$$$$
>  <compound>
Oc1c(CN2CCCC2)cc(COCc2ccccc2)c2cccnc12

>  <assay_readout>
cell viability

>  <readout_number>
6.8

$$$$
>  <compound>
N=C(N)NCCC[C@H](NC(=O)[C@@H]1CCCN1C(=O)[C@@H]1CSSC[C@H](N)C(=O)N[C@@H](Cc2ccc(O)cc2)C(=O)N[C@@H](Cc2ccccc2)C(=O)N[C@@H](CCC(N)=O)C(=O)N[C@@H](CC(N)=O)C(=O)N1)C(=O)NCC(N)=O

>  <assay_readout>
cell viability

>  <readout_number>
99.1

$$$$
>  <compound>
CNCCCC1(c2ccccc2)OC(C)(C)c2ccccc21 (configuration not stated)

>  <assay_readout>
cell viability

>  <readout_number>
104

$$$$
>  <compound>
CCn1c2ccccc2c2cc(CNCc3ccccc3OC)ccc21

>  <assay_readout>
cell viability

>  <readout_number>
93.5

$$$$
>  <compound>
C[N+]1([O-])[C@@H]2C[C@@H](OC(=O)[C@H](CO)c3ccccc3)C[C@H]1[C@@H]1O[C@@H]12 (some centres not stated) [scopolamine-N-oxide]

>  <assay_readout>
cell viability

>  <readout_number>
107

$$$$
>  <compound>
Cc1cc2c(F)c(Oc3ncnn4cc(OC[C@@H](C)OC(=O)[C@H](C)N)c(C)c34)ccc2[nH]1 [brivanib-alaninate]

>  <assay_readout>
cell viability

>  <readout_number>
88.2

$$$$
